The reported numbers originate from PubChem BioAssay.

# protocol_description: osmotic lysis modulators in infected erythrocytes, primary screen, PSAC antagonist project, cell-based, P. falciparum Indochina, OD700, 3 h (AID 1156)
# recorded_conditions: higher = more signal, called active from +8 up or from −8 down
z-score for assorted molecules
Enter a number only.

Consider the reported z-score for these molecules:
| structure_smiles_string | z-score |
| --- | --- |
| NC(=O)[C@@H]1[C@H]2C(=O)O[C@H](c3ccccc3)[C@H](c3ccccc3)N2[C@H](c2ccc(OCCO)cc2)[C@@]12C(=O)Nc1ccc(C#CCCO)cc12 | 2.59 |
| CC(C)C[C@@H]1NC(=O)[C@@H]2C[C@H](C(=O)NCCCCCC[N+](C)(C)C)[C@H](c3cccc(OCCO)c3)N2C1=O | -0.953 |
| NC(=O)[C@H]1[C@@H]2C(=O)O[C@@H](c3ccccc3)[C@@H](c3ccccc3)N2[C@@H](c2ccc(O)cc2)[C@]12C(=O)Nc1ccc(C#CC3=CCCCC3)cc12 | 0.28 |
| C=CCN1C(=O)[C@@]2(O[C@@H](CCO)[C@H]([Si](C)(C)c3ccc(OC)cc3)[C@H]2C)c2cc(N3CCOC3=O)ccc21 | 0.28 |
| COCCOC(=O)N1C(=O)[C@@]2(c3ccccc31)[C@H](c1ccccc1OCCO)N1[C@H](c3ccccc3)[C@H](c3ccccc3)OC(=O)[C@H]1[C@@H]2C(N)=O | -0.463 |
| CC(=O)NCCCC[C@@H]1NC(=O)[C@H]2C[C@@H](C(=O)NCCCCCNC(=O)CS)[C@@H](c3cccc(OCCO)c3)N2C1=O | -0.369 |

Could you now look at the following molecule, please?
Form: molecule = Nc1cc(Br)ccc1C(=O)O ; z-score = -0.611

----------
z-score for assorted compounds
# protocol_description: basal RPMI8226 viability, no added stimulus, profiling panel, cell-based, calcein-AM fluorescence, 48 h, PK04 Diversity Set (AID 1166);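 also: cells grown under basal conditions without added stimulus; test concentration not given here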
# recorded_conditions: RPMI8226 myeloma viability, higher = more signal
Enter a number only.

| compound | z-score |
| --- | --- |
| CCOC(=O)C1=CCN(S(=O)(=O)c2ccc(C)cc2)C1c1ccccc1 (stereo not given) | -1.21 |
| CC1CC/C=C\[C@H]2OC34C=CCN(CCN5CCOCC5)C(=O)[C@H]3N(C(C)CO)C(=O)[C@@H]4C2C(=O)O1 (stereo not given in full) | -0.143 |

Form: compound = COC(=O)C1=CC(CCCO)=CC(C)N(Cc2cccc(OC(F)(F)F)c2)C=C1C(=O)OC (stereo not given) ; z-score = 0.286

Form: compound = CN1C(=O)C2C=CC(C(O)c3cc(C(F)(F)F)cc(C(F)(F)F)c3)N(NC(=O)OC(C)(C)C)C2C1=O (stereo not given) ; z-score = -1.06

Form: compound = CC(C)c1ccc(NN2C(C(O)Cc3ccccc3)C=CC3C(=O)N(c4ccccc4)C(=O)C32)cc1 (stereo not given) ; z-score = -0.434

Form: compound = C=CCNC(=O)[C@H]1[C@@H]2C(=O)O[C@@H](c3ccccc3)[C@@H](c3ccccc3)N2[C@@H](c2ccc(OCCO)cc2)[C@]12C(=O)N(C(=O)OCCOC)c1ccc(C#Cc3ccc(OC)cc3)cc12 ; z-score = -1.2

Form: compound = CC(C)[Si]1(C(C)C)OCc2cc(-c3ccc(-c4ccc(Cl)c(Cl)c4)o3)nc(CCc3ccccc3)c21 ; z-score = -4.26

Form: compound = C=CCNC(=O)[C@@H]1[C@H]2C(=O)O[C@H](c3ccccc3)[C@H](c3ccccc3)N2[C@H](c2ccc(O)cc2)[C@@]12C(=O)Nc1ccc(C#CCC(C(=O)OC)C(=O)OC)cc12 ; z-score = -4.52

Form: compound = C=C[C@@H](C)[C@H](O)c1ccc(OCCO)cc1 ; z-score = -0.289

Form: compound = CCOC(=O)C1=CCC(c2ccccc2)N(S(=O)(=O)c2ccc([N+](=O)[O-])cc2)C1 (stereo not given) ; z-score = 0.0811

----------
# Test system: Plasmodium falciparum Sir2 (PF13_0152, Sir2A)
# protocol_description: pfSir2 binders on small-molecule microarrays, primary screen, biochemical, small-molecule microarray, 635 nm fluorescence (AID 1098);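 also: score merges spot fluorescence intensity with its signal-to-noise ratio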
# recorded_conditions: small-molecule microarray binding, fluorescence 635 nm; higher = more signal
composite z-score for assorted compounds
Enter a number only.

Consider the reported composite z-score for these compounds:
| compound | parameter_measured | recorded_result |
| --- | --- | --- |
| C=C[C@@H](OC)[C@H](OC(=O)Nc1ccc(SC)cc1)c1ccc(OCCO)cc1 | composite z-score | 1.4 |
| Cc1ccc(S[C@]2(C(=O)NC(C)C)CC(=O)N(C(C)C)[C@@H]2c2ccc(CO)cc2I)cc1 | composite z-score | 0.476 |
| CCOC(=O)C[C@H]1[C@H](OC(=O)c2ccc(C(=O)c3ccccc3)cc2)[C@@H](NC(=O)CC(C)C)c2cc(OCCCO)ccc2N1C(=O)Cc1ccc(OC)cc1 | composite z-score | 0.0092 |

Form: compound = O=C(CS)NCCCCCNC(=O)[C@@H]1C[C@@H]2C(=O)N[C@@H](Cc3ccccc3)C(=O)N2[C@@H]1c1cccc(OCCO)c1 ; composite z-score = 1.74

Form: compound = CO[C@H]1O[C@H](CO)[C@@H](OC(=O)Nc2ccc(C#N)cc2)[C@@H]2OC(=O)[C@H](Cc3cccc(Br)c3)C/C=C/C[C@@H](Cc3cccc(Br)c3)C(=O)O[C@@H]12 ; composite z-score = 0.717

Form: compound = [N-]=[N+]=NCc1ccccc1[C@H]1OC(c2ccc(OCCCO)cc2)=N[C@@]1(CCS(=O)(=O)c1ccccc1)C(=O)NCc1ccccc1 ; composite z-score = 1.26

Form: compound = CC(C)CCC[C@@H](C)[C@H]1CC[C@@]2(C)C3=C(CC[C@]12C)[C@@]1(C)CC[C@H](OC(=O)c2ccccc2)C(C)(C)C1CC3 (some centres undefined) ; composite z-score = 0.238

Form: compound = NCCCCCNC(=O)[C@@H]1C[C@@H]2C(=O)N3CCC[C@H]3C(=O)N2[C@@H]1c1ccc(O)cc1 ; composite z-score = 1.1

Form: compound = CCCNC(=O)[C@@]1(Sc2ccc(C)cc2)CC(=O)N(C2CCCCC2)[C@@H]1c1ccc(CO)cc1I ; composite z-score = 1.56

Form: compound = COC(=O)c1c2oc(c1C(=O)OC)C(=O)N1CCC[C@H]1Cn1nncc1CN(Cc1ccccc1)C(=O)N[C@H](CO)CC2 ; composite z-score = 0.614

Form: compound = C=C(COC)/C(=C/C[C@H](OC(C)=O)c1cccc(OCCO)c1)c1cnc2ccccc2c1 ; composite z-score = 1.38

Form: compound = COc1ccc([Si](C)(C)[C@@H]2[C@@H](CC(=O)N3Cc4ccccc4C[C@H]3CO)O[C@]3(C(=O)N(Cc4ccc(N5CCC5=O)cc4)c4ccccc43)[C@H]2C)cc1 ; composite z-score = 1.16

Form: compound = C[C@]1(C(=O)O)c2ccccc2C(=O)N(Cc2ccc(OC(F)(F)F)cc2)[C@H]1c1ccc(CO)cc1 ; composite z-score = 0.0634

Form: compound = COc1ccc(C(=O)Nc2cccc(CN3C(=O)[C@@]4(O[C@@H](CC(=O)N(CCO)Cc5ccccc5)[C@H]([Si](C)(C)c5ccc(OC)cc5)[C@H]4C)c4ccccc43)c2)cc1 ; composite z-score = 1.4

----------
# protocol_description: small-molecule binders of probe aNOTCH3, primary screen, biochemical, small-molecule microarray, 635/667 nm fluorescence (AID 1120);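 also: probe is a biotin-tagged antibody raised against NOTCH3 rather than NOTCH3 protein; score merges spot fluorescence near 667 nm with spot signal to noise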
# recorded_conditions: higher = more signal
Decide using composite z-score: a value greater than or equal to -0.004 is fulfilled, a smaller one is not fulfilled.

| molecule | discrete_label |
| --- | --- |
| C[C@@H]1ON(c2ccc(I)cc2)[C@H](c2ccc(OC(=O)OC(C)(C)C)cc2)[C@H]1C(=O)N1C(=O)OC[C@H]1Cc1ccccc1 | not fulfilled |

Query: Record COCCOC(=O)N1C(=O)[C@@]2(c3cc(C#Cc4ccc(OC)cc4)ccc31)[C@H](c1ccc(OCCO)cc1)N1[C@H](c3ccccc3)[C@H](c3ccccc3)OC(=O)[C@H]1[C@@H]2C(=O)Nc1nc2ccccc2s1 ; criterion: composite z-score no lower than -0.004. Met?
Response: not fulfilled

Query: Record COCC1C2CC[C@H]3C(OCc4ccc(OC)cc4)OC[C@]4(C)[C@H]3C2=C(CN4C(=O)OC(C)(C)C)[C@H](C)C1COC (stereo partly specified) ; criterion: composite z-score no lower than -0.004. Met?
Response: fulfilled

----------
# System: Sonic hedgehog protein (Shh)
# protocol_description: small-molecule binders of Shh protein, primary screen, biochemical, small-molecule microarray, 635/667 nm fluorescence (AID 1151);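 also: Shh protein binding to compounds spotted on small-molecule microarray slides; score combines spot fluorescence intensity with signal-to-noise across triplicate slides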
# recorded_conditions: small-molecule microarray binding, 635 nm fluorescence; higher = more signal
Decide using composite z-score: a value greater than or equal to 0.006 is Met, a smaller one is Not met.

As a guide, the following entries are already answered.
| compound | discrete_label |
| --- | --- |
| COCCOC(=O)N1C(=O)[C@@]2(c3cc(C#CCC(C(=O)OC)C(=O)OC)ccc31)[C@H](c1ccc(O)cc1)N1[C@H](c3ccccc3)[C@H](c3ccccc3)OC(=O)[C@H]1[C@@H]2C(=O)NC[C@H](O)c1ccccc1 | Met |
| CCC(CC)C(O)C1C=CC2C(=O)N(c3ccccc3)C(=O)C2N1Nc1ccc([N+](=O)[O-])cc1 (configuration not stated) | Met |
| C=CCC(OC(C)=O)[C@@H]1[C@@H](N(Cc2ccc(-c3cccc(C(F)(F)F)c3)o2)C(=O)c2ccc(C)cc2)c2cc(OCCCO)ccc2N1C(=O)Cc1ccc(OC)cc1 (some centres not stated) | Met |
| C=C(CCCC)C(=O)CC[C@H](OC(=O)c1ccccc1-c1ccccc1C(=O)O)c1ccccc1OCCO | Met |

Query: Record CN(C)C(=O)[C@@]1(Cc2ccccc2N=[N+]=[N-])N=C(c2ccc(OCCCO)cc2)O[C@H]1c1ccccc1 ; criterion: composite z-score no lower than 0.006. Met?
Response: Not met

Query: Record [N-]=[N+]=NCc1ccccc1C[C@@]1(C(=O)N2CCCCC2)N=C(c2ccc(OCCCO)cc2)O[C@@H]1c1ccccc1CN=[N+]=[N-] ; criterion: composite z-score no lower than 0.006. Met?
Response: Not met

Query: Record O=C1C2C=CC(C(O)C=Cc3ccc([N+](=O)[O-])cc3)N(Nc3ccccc3)C2C(=O)N1c1ccccc1 (configuration not stated) ; criterion: composite z-score no lower than 0.006. Met?
Response: Met
